src = patent US6605601B2

TARGET_UNDER_TEST: rat A1 adenosine receptor (Rattus norvegicus, UniProt P25099)
Construct: Membranes were prepared from rat cerebral cortex isolated from freshly euthanized rats; from tissue; host or cells: rat cerebral cortex
Sequence (P25099 whole entry): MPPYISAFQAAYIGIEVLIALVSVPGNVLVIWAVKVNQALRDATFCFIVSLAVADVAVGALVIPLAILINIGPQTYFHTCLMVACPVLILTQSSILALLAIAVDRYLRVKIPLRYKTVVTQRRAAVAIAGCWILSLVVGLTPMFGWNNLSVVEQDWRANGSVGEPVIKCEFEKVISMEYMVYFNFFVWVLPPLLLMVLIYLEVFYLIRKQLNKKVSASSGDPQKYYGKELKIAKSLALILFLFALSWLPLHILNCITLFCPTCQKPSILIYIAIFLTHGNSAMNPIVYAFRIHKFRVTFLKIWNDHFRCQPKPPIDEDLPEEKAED
ASSAY_OVERVIEW: Radioligand ([3H]DPCPX) competition binding assay on rat A1 adenosine receptor (rat cerebral cortex membranes)
TEST_CONTEXT: 2.5 h, % of total specific radioligand binding remaining at 1 μM of competing compound
MEASUREMENT_TYPE: % specific radioligand binding remaining at 1 µM (%)

>  <COMPOUND>
CCCC[C@@H]1CN2C(=O)N(CCC)c3nc(C45CCC(O)(CC4)CC5)[nH]c3C2=N1

>  <UNITS_LABEL>
%

>  <MEASURED_VALUE>
18.1

$$$$

(1) CCCN1C(=O)N2C[C@@H](C(C)CC)N=C2c2[nH]c(C34CCC(O)(CC3)CC4)nc21 (some centres unmarked)
(2) CCCN1C(=O)N2C[C@H](CC)N=C2c2[nH]c(C34CCC(O)(CC3)CC4)nc21
Please choose the item with the lower % specific radioligand binding remaining at 1 µM value from this pair: 1 and 2 Answer = label. 1
(1: 1%, 2: 11%)
